Reference source for all entries: the supplement of paper PMC9262897

Test system: E. coli TESEC Mtb DapB
protocol.details: growth (OD600 after 10 h); higher = more growth (less inhibition)
settings: arabinose induction (level): High; compound 0.1 mM; raw OD600 reference: median of DMSO wells […], cell-free background 0.041
Structures can show the parent of a compound that is named as a salt.
# Lookup of reported growth keyed by entry
endpoint.label: growth

[[record]]
molecule = "Cc1c(NC(C)C)c(=O)n(-c2ccccc2)n1C [Isopyrin hydrochloride]"
endpoint_label = "growth"
meas_value = 0.218

[[record]]
molecule = "Nc1nc(=S)c2ncn([C@@H]3O[C@H](CO)[C@@H](O)[C@H]3O)c2[nH]1"
endpoint_label = "growth"
meas_value = 0.174

[[record]]
molecule = "CCN1CCC[C@H]1CNC(=O)c1c(OC)ccc(Br)c1OC [Remoxipride Hydrochloride]"
endpoint_label = "growth"
meas_value = 0.195

[[record]]
molecule = "CCOC(=O)N1CCC(=C2c3ccc(Cl)cc3CCc3cccnc32)CC1"
endpoint_label = "growth"
meas_value = 0.195

[[record]]
molecule = "Nc1ccc(S(=O)(=O)Nc2ccnn2-c2ccccc2)cc1"
endpoint_label = "growth"
meas_value = 0.163

[[record]]
molecule = "O=C(O)c1ccccc1OP(=O)(O)O"
endpoint_label = "growth"
meas_value = 0.21

[[record]]
molecule = "Cc1c(Cl)cccc1Nc1ccccc1C(=O)O"
endpoint_label = "growth"
meas_value = 0.0686

[[record]]
molecule = "CC(C(=O)O)c1ccc(-c2ccccc2)c(F)c1 (centres undefined)"
endpoint_label = "growth"
meas_value = 0.208

[[record]]
molecule = "O=C(O)CCNC(=O)c1ccc(/N=N/c2ccc(O)c(C(=O)O)c2)cc1 [Balsalazide Sodium]"
endpoint_label = "growth"
meas_value = 0.232


---

# Lookup of reported growth keyed by entry
Tested on: E. coli TESEC Mtb Alr
protocol.details: growth (OD600 after 10 h); higher = more growth (less inhibition)
settings: arabinose 10000 nM; compound 0.1 mM; raw OD600 reference: median of DMSO wells 0.264, cell-free background 0.041
Structures can show the parent of a compound that is named as a salt.
endpoint.label: growth

[[record]]
molecule = "C[C@H]1O[C@@H](O[C@H]2[C@@H](O)C[C@H](O[C@H]3[C@@H](O)C[C@H](O[C@H]4CC[C@@]5(C)[C@H](CC[C@@H]6[C@@H]5C[C@@H](O)[C@]5(C)[C@@H](C7=CC(=O)OC7)CC[C@]65O)C4)O[C@@H]3C)O[C@@H]2C)C[C@H](O)[C@@H]1O [Digoxin]"
meas_value = 0.275

[[record]]
molecule = "CC(C(=O)O)c1ccc(C(=O)c2ccccc2)s1 (centres undefined) [Tiaprofenic acid]"
meas_value = 0.246

[[record]]
molecule = "O=c1cc(-c2ccc(O)c(O)c2)oc2cc(O)cc(O)c12 [Luteolin]"
meas_value = 0.05

[[record]]
molecule = "Nc1nc2c(ncn2COCCO)c(=O)[nH]1 [Acyclovir]"
meas_value = 0.271

[[record]]
molecule = "CCC(=O)O[C@]1(C(=O)CCl)[C@@H](C)C[C@H]2[C@@H]3CCC4=CC(=O)C=C[C@]4(C)[C@@]3(F)[C@@H](O)C[C@@]21C [Clobetasol propionate]"
meas_value = 0.186

[[record]]
molecule = "O=C(NCC(O)CO)c1c(I)c(C(=O)NCC(O)CO)c(I)c(N(CCO)C(=O)CO)c1I (centres undefined) [Ioversol]"
meas_value = 0.288

[[record]]
molecule = "COC(=O)Nc1nc2cc(C(=O)c3ccc(F)cc3)ccc2[nH]1 [Flubendazol]"
meas_value = 0.259

[[record]]
molecule = "C[C@]12CC[C@@H]3c4ccc(O)cc4CC[C@H]3[C@@H]1C[C@@H](O)[C@@H]2O [Estriol]"
meas_value = 0.277

[[record]]
molecule = "CC(=O)OC[C@H]1O[C@@H]([S-])[C@H](OC(C)=O)[C@@H](OC(C)=O)[C@@H]1OC(C)=O.CCP(CC)CC.[Au+] [Auranofin]"
meas_value = 0.0451

[[record]]
molecule = "CC(C)(C)CC(C)(C)c1ccc(OCOCCOCCO)c(Cc2cc(C(C)(C)CC(C)(C)C)cc(Cc3cc(C(C)(C)CC(C)(C)C)ccc3OCOCCOCCO)c2OCOCCOCCO)c1 [Tyloxapol]"
meas_value = 0.256

[[record]]
molecule = "CC(C)(C)NC(=O)[C@@H]1CN(Cc2cccnc2)CCN1C[C@@H](O)C[C@@H](Cc1ccccc1)C(=O)N[C@H]1c2ccccc2C[C@H]1O [Indinavir sulfate]"
meas_value = 0.241

[[record]]
molecule = "CC(=O)[C@@]1(O)CC[C@H]2[C@@H]3C[C@H](C)C4=CC(=O)C=C[C@]4(C)[C@@]3(F)[C@@H](O)C[C@@]21C [Fluorometholone]"
meas_value = 0.248

[[record]]
molecule = "O=C1Nc2ccc(Cl)cc2[C@@](C#CC2CC2)(C(F)(F)F)O1 [Efavirenz]"
meas_value = 0.0421

[[record]]
molecule = "CC(C)Cn1cnc2c(N)nc3ccccc3c21 [Imiquimod]"
meas_value = 0.282

